Numbers sourced from the OPERA property sets (Mansouri et al. 2018).

Task for the reader: assign each of the following compounds its reported melting point.

Sample answers from the record:
{"COMPOUND": "O=CC(Cl)(Cl)Cl", "melting point": "-57.5 °C"}
{"COMPOUND": "CCOc1ccc(I)cc1", "melting point": "29 °C"}
{"COMPOUND": "CC1CCCCC1(C)C (configuration not stated)", "melting point": "-29 °C"}

Could you report melting point for every entry in the following list?
1. N=CNO
2. O=C1CCCC(=O)C1
3. CCCCCCCCCCCCC/C=C/[C@@H](O)[C@@H](N)CO
4. c1ccc(Cc2nc3ccccc3[nH]2)cc1
5. C[C@@H]1NC(=O)N[C@@H]1CCCCCC(=O)O

1: 114 °C; 2: 106 °C; 3: 67 °C; 4: 187 °C; 5: 157 °C

----------
Exercise: state measured boiling point for each of the molecules provided.
Give bare numbers, in °C.

Worked examples follow.
{"MOLECULE": "CCOC(CN)OCC", "boiling point [°C]": 163}
{"MOLECULE": "CN1C2CCCC1CC(=O)C2", "boiling point [°C]": 246}
{"MOLECULE": "CCC(C)(C)S", "boiling point [°C]": 99.1}
{"MOLECULE": "Cc1ccc(Br)cc1C", "boiling point [°C]": 214}
{"MOLECULE": "CC=CC(C)C(=O)O (stereo not drawn)", "boiling point [°C]": 199}
{"MOLECULE": "CN(C)c1cccc(N)c1", "boiling point [°C]": 270}
{"MOLECULE": "CCOc1cc(Oc2ccc(C(F)(F)F)cc2Cl)ccc1[N+](=O)[O-]", "boiling point [°C]": 358}
{"MOLECULE": "CCCCB(Cl)CCCC", "boiling point [°C]": 173}

Each molecule below has a reported value. Please supply its boiling point.
1. CCC1(C)OCCO1
2. CC(C)OC(C)C
3. Fc1nc(F)nc(F)n1
4. CCOC(=O)C#Cc1ccccc1
5. C=CC(O)CO (stereo not drawn)
6. CNc1cccc(C)c1
7. COc1ccc(N)cc1N
8. Fc1c(F)c(F)c(CBr)c(F)c1F

1: 116; 2: 68.5; 3: 72.8; 4: 265; 5: 196; 6: 206; 7: 221; 8: 174

I have 2 molecules here; please give me boiling point for each one.
1. CCCCCCCCCc1ccc2ccccc2c1
2. CC=CC(=O)Cl

1: 372; 2: 124

----------
hey, just use YES if measured melting point is less than 50 °C, otherwise NO

{"COMPOUND": "CNC(N)=S", "LABEL_CLASS": "NO"}

A record lists C#Cc1ccccc1 . Is its melting point below 50 °C? YES

----------
Record Fulfilled whenever melting point is at 100 °C or higher; record Not fulfilled when lower.

Solved entries (count: 8):
{"COMPOUND": "Cc1ccc(-c2cccc(C)c2)cc1", "LABEL_CLASS": "Not fulfilled"}
{"COMPOUND": "Cc1c(Cl)cccc1Cl", "LABEL_CLASS": "Not fulfilled"}
{"COMPOUND": "CCCCNCCCC", "LABEL_CLASS": "Not fulfilled"}
{"COMPOUND": "N#CC=Cc1ccco1", "LABEL_CLASS": "Not fulfilled"}
{"COMPOUND": "CCCCCC(C)(C)C", "LABEL_CLASS": "Not fulfilled"}
{"COMPOUND": "Clc1nc2ccccc2s1", "LABEL_CLASS": "Not fulfilled"}
{"COMPOUND": "O=C(O)c1ccccc1C1c2ccc(O)cc2Oc2cc(O)ccc21", "LABEL_CLASS": "Fulfilled"}
{"COMPOUND": "CC(C)(C)NC[C@H](O)COc1nsnc1N1CCOCC1", "LABEL_CLASS": "Fulfilled"}

Exam item: decide whether the reported melting point for O=C(C(=O)c1ccccc1)c1ccccc1 is at least 100 °C. Not fulfilled

Entry O=CC[C@@H](O)C(O)[C@H](O)CO (stereo in doubt) : is its melting point no less than 100 °C? Fulfilled

Is reported melting point greater than or equal to 100 °C here: CC(=O)Oc1ccc(C(=O)O)cc1 Fulfilled

Is melting point at least 100 °C? Consider O=[N+]([O-])c1ccc(O)cc1 Fulfilled

Reported melting point reaches at least 100 °C for CC(=O)Nc1cc(NS(=O)(=O)C(F)(F)F)c(C)cc1C ? Fulfilled

Entry ClC(c1ccccc1)(c1ccccc1)c1ccccc1 : is its melting point no less than 100 °C? Fulfilled

Could you please find out whether Oc1cc(Cl)c(Cl)c(Cl)c1Cl has melting point that meets 100 °C or exceeds it? Fulfilled

I'd appreciate it if you could say whether CNC(C)=O has melting point at least equal to 100 °C. Not fulfilled

----------
Hi there, I'd appreciate the recorded boiling point for every entry that follows.
Give bare numbers, in °C.

{"COMPOUND": "OCc1ccc(Cl)cc1", "NUMBER": 235}
{"COMPOUND": "CC(C)(C)CC(C)(C)N", "NUMBER": 140}
{"COMPOUND": "O=C1CCCC1", "NUMBER": 130}

Quick batch: boiling point for everything below.
1. CCOC(=O)C1OC1(C)c1ccccc1 (stereo not drawn)
2. ClC(Cl)(Cl)I
3. CCCCCCCOC(=O)CCCC
4. C=CC(F)(F)C(F)(F)C(F)(F)C(F)(F)C(F)(F)C(F)(F)F
5. CC(C)(C)c1ccccc1N

1: 274; 2: 142; 3: 245; 4: 104; 5: 234

----------
Labelling: melting point reported below 100 °C becomes t; at or above becomes f.

Here's what some known entries look like.
{"COMPOUND": "ICCCCCCI", "LABEL_CLASS": "t"}
{"COMPOUND": "c1ccc2c(c1)[nH]c1ccccc12", "LABEL_CLASS": "f"}
{"COMPOUND": "Cn1c(=O)c2c(ncn2C)n(C)c1=O", "LABEL_CLASS": "f"}
{"COMPOUND": "COc1cc2c(cc1O)C(Cc1ccc(OC)c(OC)c1)N(C)CC2 (stereo not given)", "LABEL_CLASS": "f"}
{"COMPOUND": "C=NCC#N", "LABEL_CLASS": "f"}

Does this compound meet the criterion melting point < 100 °C? O=C(O)c1c(Cl)cccc1Cl f

Field: below-cutoff. Rule: recorded melting point strictly less than 100 °C. Subject: Nc1c(Br)cc(Br)cc1Br f

Report whether reported melting point is lower than 100 °C (strictly) for O=C(O)c1cccc(O)c1O f

is_below(melting point, 100 °C) for Cc1ccccc1NCc1ccccc1 ? t

Strictly below 100 °C: is that where melting point of O=C(O)C(Cc1cc(I)c(O)c(I)c1)c1ccccc1 (stereo not given) sits? f

melting point strictly < 100 °C for this compound? C[Si]1(C)O[Si](C)(C)O[Si](C)(C)O[Si](C)(C)O[Si](C)(C)O[Si](C)(C)O1 t

hey, is melting point for COc1ccccc1OCC(O)COC(N)=O (stereo not given) lower than 100 °C or not? t

Please let me know if CCCCCCCCCCCCCCCC(C)C shows melting point below 100 °C. t

In the record for FC(F)(F)C(F)(F)C(F)(F)C(F)(F)I , is melting point less than 100 °C? t

Threshold test, melting point < 100 °C: FC(F)(F)C(Cl)C(F)(F)F t

----------
Classify: Yes when melting point is strictly less than 70 °C; No when melting point is not.

A selection of reference data follows.
{"MOLECULE": "CNc1ccccc1", "LABEL_CLASS": "Yes"}
{"MOLECULE": "Cc1ncc(CO)c(N)n1", "LABEL_CLASS": "No"}
{"MOLECULE": "Cc1cccc(C(=O)O)c1C", "LABEL_CLASS": "No"}
{"MOLECULE": "CC1(C)S[C@@H]2[C@H](NC(=O)C3(N)CCCCC3)C(=O)N2[C@H]1C(=O)O", "LABEL_CLASS": "No"}
{"MOLECULE": "Cc1ccc(C)c(OCCCC(C)(C)C(=O)O)c1", "LABEL_CLASS": "Yes"}

Turning now to a further record.
Decide: melting point of COP(=O)(OC)C(O)C(Cl)(Cl)Cl (stereo unspecified) strictly below 70 °C? No

----------
Task for the reader: assign each of the following compounds its reported boiling point.

{"COMPOUND": "COc1cc(C)cc(OC)c1", "boiling point": "244 °C"}
{"COMPOUND": "CCCCCC(=O)c1ccccc1", "boiling point": "265 °C"}
{"COMPOUND": "C[Si](C)(C)Cc1ccccc1", "boiling point": "190 °C"}
{"COMPOUND": "CCCCCCCCON=O", "boiling point": "174 °C"}
{"COMPOUND": "COc1ccccc1Cl", "boiling point": "198 °C"}
{"COMPOUND": "Nc1ccc(-c2ccc(N)c(Cl)c2)cc1Cl", "boiling point": "368 °C"}

Please report boiling point for every entry that follows.
1. CC1=CC(=O)CC1
2. C/C=C(/C)CCC
3. CCCC(C)CC=O (stereo not drawn)
4. C#CCC
5. N#CSCCl

158 °C
95.6 °C
143 °C
8 °C
185 °C
